All figures here come from the Human Domainome abundance scans (Beltran et al. 2025).

B1: POU domain, class 5, transcription factor 1, residues 134 to 212; numbered along this chain, Q01860 (parent)
chain: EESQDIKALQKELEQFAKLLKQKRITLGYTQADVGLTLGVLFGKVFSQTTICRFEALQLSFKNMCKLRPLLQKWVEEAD

- Variants of: B1
- assay: abundance fitness (aPCA) (normalised: wild type 0, dead -1); higher = more abundant; growth selection in yeast, the domain comes from the species named
- condition_label: Homo sapiens
measurement_name: abundance fitness

In the examples that follow, each entry is paired with its recorded abundance fitness.
1) EESQDIKALQKELEQFAKLLKQKRITLGWTQADVGLTLGVLFGKVFSQTTICRFEALQLSFKNMCKLRPLLQKWVEEAD [Y29W]
-0.472
2) EESQDIKALQKELEQFAKLLKQKRITLGYTQADVGLTLGVLFGKVFSQTTICRFEALQLSFKNMCKLRPLLEKWVEEAD [Q72E]
0.342
3) EESQDIKALQKELEQFAKLLKQKRITLGYTQADVGLTLGVLFGKVFSQTSICRFEALQLSFKNMCKLRPLLQKWVEEAD [T50S]
-0.542
4) EESQDIKALQKELEQFAKLLKQKRITLGYTQADVGLTLGVLFGKVFSQTTICRFEALQLSFKHMCKLRPLLQKWVEEAD [N63H]
-0.183
5) EESQDIKALQKELEQFAKLLKQKRITLGYTQADVGLTLGVLFGKVFSQTTICRFEALQLSFKNDCKLRPLLQKWVEEAD [M64D]
-0.816
6) EESQDIKALQKELEQFAKLLKQKRITLGYTQADVGLTLGVLFGKVFSQTTICRFEALQLRFKNMCKLRPLLQKWVEEAD [S60R]
-0.556
7) EESQDIKAVQKELEQFAKLLKQKRITLGYTQADVGLTLGVLFGKVFSQTTICRFEALQLSFKNMCKLRPLLQKWVEEAD [L9V]
0.044
8) EESQDIKALQKELEQFAKLLVQKRITLGYTQADVGLTLGVLFGKVFSQTTICRFEALQLSFKNMCKLRPLLQKWVEEAD [K21V]
-0.373
9) EESQDIKALQKELEQFAKLLKQKRITLGYTQADVGLTLGVLKGKVFSQTTICRFEALQLSFKNMCKLRPLLQKWVEEAD [F42K]
-0.262
10) EESQDIKALQKELEQFAKLLKQKRITLGYTQADVGLTLGVLFGKVFSQTTICRFEAGQLSFKNMCKLRPLLQKWVEEAD [L57G]
0.094

Next variant, abundance fitness to be filled in.
Briefly, abundance fitness measured for EESQDIKALQKELEQFAKLLKQKRITLGYTQADVGLTLGVLFGKVFSQTTICRFEALQLSFKNMTKLRPLLQKWVEEAD [C65T] : -0.403
